- System: A431 cells
- assay_details: Inhibition of growth of A431 (neo-transfected, not expressing α-FR) cells
- Format: cell-based, human
- measurement_conditions: Homo sapiens, A-431, read-out: Inhibition of cell growth, IC50, A431 + 1 μM FA, 1 nM LV; + 1 μM folic acid
pIC50: −log10 of the molar value.

{"columns": ["compound", "pIC50"],
 "data": [
  ["C#CCN(c1ccc(C(=O)N[C@@H](CCC(=O)N[C@H](CCC(=O)O)C(=O)O)C(=O)O)cc1)C1CCc2cc3nc(C)[nH]c(=O)c3cc21 (mixture of isomers) [CB300638 (RS)]", 6.01],
  ["C#CCN(c1ccc(C(=O)N[C@@H](CCC(=O)N[C@H](CCC(=O)O)C(=O)O)C(=O)O)cc1)C1CCc2cc3nc(N)[nH]c(=O)c3cc21 (mixture of isomers) [CB300944 (RS)]", 4.62],
  ["C#CCN(c1ccc(C(=O)N[C@@H](CCC(=O)N[C@H](CCC(=O)O)C(=O)O)C(=O)O)cc1)C1CCc2cc3nc(CO)[nH]c(=O)c3cc21 (mixture of isomers) [CB300945 (RS)]", 5.14]
]}
